# Tested on: GB4
# run.description: qHTS profiling for inhibitors of Plasmodium falciparum proliferation (AID 504749); also: nearly all actives have a fitted effect of over 60% in size
# experimental.conditions: P. falciparum in erythrocytes, SYBR Green DNA, 72 h; series mostly up to 28.7 µM
Inconclusive results are not listed. Calls of active or inactive are those of the source. Calls follow the shape of the dose curve; as a rule, active = well fitted inhibition curve with a large enough effect; inconclusive = small, poorly fitted or top-dose-only effect; inactive = flat fitted curve, though single readings scatter.
Outcomes you can answer with include only these: yes (1) for active, no (0) for inactive

Asked: Recorded test call requested for `C[S+](C)CC[C@H](N)C(=O)O`
Given back: no (0)

Asked: Note, next up: `O=C(O)C[CH2][Ge](=[O])[O][Ge](=[O])[CH2]CC(=O)O`
Given back: no (0)

Asked: Note, next up: Cc1c(C)c2c(c(C)c1O)CCC(C)(CCCC(C)CCCC(C)CCCC(C)C)O2 (centres undefined)
Given back: no (0)

Asked: Note, next up: O=c1ccn(C2OC(COP(=O)(O)OC3C(CO)OC(n4ccc(=O)[nH]c4=O)C3O)C(O)C2O)c(=O)[nH]1 (centres undefined)
Given back: no (0)

Asked: Note, next up: CNC1C(O)C(OC2C(N)CC(N)C(OC3OC(CN)=CCC3N)C2O)OCC1(C)O (centres undefined)
Given back: no (0)

Asked: Note, next up: CC(CCC(=O)O)C1CCC2C3C(=O)C[C@@H]4CC(=O)CC[C@@]4(C)C3CC(=O)[C@]12C (some centres undefined)
Given back: no (0)

Asked: Note, next up: `COc1cc(/C=C2\CCC/C(=C\c3ccc(O)c(OC)c3)C2=O)ccc1O`
Given back: yes (1)

Asked: Note, next up: CC(=O)NC1[C@H]([C@H](O)[C@H](O)CO)OC(C(=O)O)=C[C@H]1N=C(N)N (some centres undefined)
Given back: no (0)

Asked: Note, next up: Nc1nc2[nH]cc(CCc3ccc(C(=O)NC(CCC(=O)O)C(=O)O)cc3)c2c(=O)[nH]1 (centres undefined)
Given back: yes (1)
